Some molecules, each annotated with its measured IC50.
Biological target: TIE2 (Homo sapiens)
Construct: made in house; host or cells: Sf9 insect cells, baculovirus
Sequence (Q02763 23-1124): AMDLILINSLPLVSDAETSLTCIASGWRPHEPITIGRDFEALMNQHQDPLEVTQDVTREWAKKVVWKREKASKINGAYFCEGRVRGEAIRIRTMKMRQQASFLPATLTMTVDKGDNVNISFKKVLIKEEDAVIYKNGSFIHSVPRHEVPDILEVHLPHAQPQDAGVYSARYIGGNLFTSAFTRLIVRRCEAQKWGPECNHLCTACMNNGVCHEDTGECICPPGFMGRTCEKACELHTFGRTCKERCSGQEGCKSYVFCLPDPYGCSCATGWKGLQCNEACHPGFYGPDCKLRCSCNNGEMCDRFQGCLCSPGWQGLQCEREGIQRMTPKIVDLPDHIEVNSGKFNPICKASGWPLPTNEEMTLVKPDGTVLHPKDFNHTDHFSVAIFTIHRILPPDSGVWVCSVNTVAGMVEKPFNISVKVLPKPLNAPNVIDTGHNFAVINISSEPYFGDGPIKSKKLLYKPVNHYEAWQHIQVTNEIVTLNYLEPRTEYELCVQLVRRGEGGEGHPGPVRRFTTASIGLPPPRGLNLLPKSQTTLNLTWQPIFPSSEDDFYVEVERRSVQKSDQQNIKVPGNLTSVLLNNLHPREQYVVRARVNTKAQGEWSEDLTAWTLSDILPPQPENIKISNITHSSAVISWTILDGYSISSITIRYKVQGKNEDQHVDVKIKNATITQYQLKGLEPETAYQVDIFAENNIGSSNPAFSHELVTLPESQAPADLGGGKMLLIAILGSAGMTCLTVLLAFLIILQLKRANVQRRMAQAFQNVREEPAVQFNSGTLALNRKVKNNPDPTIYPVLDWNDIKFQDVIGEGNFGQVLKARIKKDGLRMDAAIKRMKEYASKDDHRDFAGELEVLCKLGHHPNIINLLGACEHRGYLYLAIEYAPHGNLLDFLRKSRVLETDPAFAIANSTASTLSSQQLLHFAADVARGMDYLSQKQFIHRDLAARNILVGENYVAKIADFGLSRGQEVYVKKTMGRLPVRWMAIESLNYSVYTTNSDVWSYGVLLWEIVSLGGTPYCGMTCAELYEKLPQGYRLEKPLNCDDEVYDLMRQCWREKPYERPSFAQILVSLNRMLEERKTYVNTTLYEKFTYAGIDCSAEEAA
Assay: Radiometric protein kinase assay (33PanQinase Activity Assay)
Format: biochemical
Conditions: 1 μM ATP; read-out: IC50 values [μM] TIE2
observation-type: IC50 (µM)

- molecule: "O=c1ccc(=O)c2c1c1c(=O)c3ccccc3c1n2Cc1ccccc1 [Compound 6c]"
  observation-type: "IC50"
  units-label: "µM"
  data-value: 4.7
- molecule: "CC(C)n1c2c(=O)ccc(=O)c2c2c(=O)c3ccccc3c21 [Compound 6b]"
  observation-type: "IC50"
  units-label: "µM"
  data-value: 3.2

---

Rule: measured melting point below 200 °C gets YES; anything equal to or greater than 200 °C gets NO.

- compound: "CN(C)CCn1c2c(c3c1-c1ccccc1C3=O)C(=O)CCC2"
  cat: "YES"
- compound: "CCOCCCn1c2c(c3c1-c1ccccc1C3=O)C(=O)CCC2"
  cat: "YES"
- compound: "O=C1CCCc2c1c1c(n2Cc2ccccc2)-c2ccccc2C1=O"
  cat: "YES"
- compound: "O=C1CCCc2c1c1c(n2CCCO)-c2ccccc2C1=O"
  cat: "NO"
- compound: "COC(=O)C1C(=O)c2c([nH]c3c2C(=O)c2ccccc2-3)CC1C (stereo not drawn)"
  cat: "NO"

---

Target: CDK2/CycA (Homo sapiens)
Construct: made in house; host or cells: Sf9 insect cells, baculovirus
Assay: Radiometric protein kinase assay (33PanQinase Activity Assay)
Type: biochemical
Conditions: 1 μM ATP; read-out: IC50 values [μM] CDK2/CycA

- compound: "CC(C)n1c2c(=O)ccc(=O)c2c2c(=O)c3ccccc3c21 [Compound 6b]"
  IC50: "> 10 µM"
- compound: "O=c1ccc(=O)c2c1c1c(=O)c3ccccc3c1n2Cc1ccccc1 [Compound 6c]"
  IC50: "> 10 µM"

---

Target: SRC (Homo sapiens)
Construct: made in house; host or cells: Sf9 insect cells, baculovirus
Experiment: Radiometric protein kinase assay (33PanQinase Activity Assay)
Type: biochemical
pIC50: −log10 of the molar value.

- compound-smiles: "CC(C)n1c2c(c3c1-c1ccccc1C3=O)C(=O)CCC2"
  pIC50: "< 5.00"

---

Target: SRC (Homo sapiens, UniProt P12931)
Construct: made in house; host or cells: Sf9 insect cells, baculovirus
Sequence (P12931 whole entry): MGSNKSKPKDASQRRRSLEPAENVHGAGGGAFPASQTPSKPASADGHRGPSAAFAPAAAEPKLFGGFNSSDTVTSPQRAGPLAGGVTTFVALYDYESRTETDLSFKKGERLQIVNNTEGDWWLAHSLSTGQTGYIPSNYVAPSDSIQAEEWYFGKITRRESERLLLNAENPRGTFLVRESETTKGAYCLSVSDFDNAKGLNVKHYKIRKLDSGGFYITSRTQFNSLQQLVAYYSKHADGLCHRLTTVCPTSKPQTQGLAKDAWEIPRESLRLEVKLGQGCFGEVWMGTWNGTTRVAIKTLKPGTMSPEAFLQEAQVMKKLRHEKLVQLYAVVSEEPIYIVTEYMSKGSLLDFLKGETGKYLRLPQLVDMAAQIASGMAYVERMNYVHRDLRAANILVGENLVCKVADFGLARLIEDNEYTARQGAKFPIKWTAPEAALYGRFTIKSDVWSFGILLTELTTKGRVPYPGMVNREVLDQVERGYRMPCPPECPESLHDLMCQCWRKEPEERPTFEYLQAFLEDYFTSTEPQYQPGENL
Test: Radiometric protein kinase assay (33PanQinase Activity Assay)
Assay type: biochemical
Settings: 1 μM ATP; read-out: IC50 values [μM] SRC
Reported IC50 values are given for each entry in this list.
observation-type: IC50 (µM)

- compound-smiles: "CC(C)n1c2c(=O)ccc(=O)c2c2c(=O)c3ccccc3c21"
  measurement-target: "SRC (Homo sapiens, UniProt P12931)"
  data-value: 1.6
- compound-smiles: "O=c1ccc(=O)c2c1c1c(=O)c3ccccc3c1n2Cc1ccccc1"
  measurement-target: "SRC (Homo sapiens, UniProt P12931)"
  data-value: 0.8

---

Target: INS-R (Homo sapiens)
Construct: made in house; host or cells: Sf9 insect cells, baculovirus
Sequence (P06213 980-1382 limits assumed): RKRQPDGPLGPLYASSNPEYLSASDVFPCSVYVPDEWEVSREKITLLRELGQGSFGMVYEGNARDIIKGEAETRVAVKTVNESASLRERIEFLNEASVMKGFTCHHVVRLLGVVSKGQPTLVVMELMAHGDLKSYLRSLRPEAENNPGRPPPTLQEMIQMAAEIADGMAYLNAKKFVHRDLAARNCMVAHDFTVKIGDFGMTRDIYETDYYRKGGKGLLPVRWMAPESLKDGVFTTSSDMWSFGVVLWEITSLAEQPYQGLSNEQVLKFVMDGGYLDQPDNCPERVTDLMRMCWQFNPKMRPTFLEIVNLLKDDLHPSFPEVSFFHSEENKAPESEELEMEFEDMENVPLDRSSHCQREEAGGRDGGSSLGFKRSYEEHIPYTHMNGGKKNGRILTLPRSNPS
Assay: Radiometric protein kinase assay (33PanQinase Activity Assay)
Format: biochemical
pIC50: −log10 of the molar value.

- compound: "CC(C)n1c2c(c3c1-c1ccccc1C3=O)C(=O)CCC2 [Compound 4b]"
  measurement-target: "INS-R (Homo sapiens)"
  pIC50: "< 5.00"

---

Target: Aurora-B (Homo sapiens, UniProt Q96GD4)
Construct: made in house; host or cells: Sf9 insect cells, baculovirus
Test: Radiometric protein kinase assay (33PanQinase Activity Assay)
Assay type: biochemical
Experimental: AKTI1, ARK5, Aurora-A, Aurora-B, B-RAF-VE, CDK2/CycA, CDK4/CycD1, CK2-alpha1 (catalytic subunit of CK2), EGF-R, EPHB4, ERBB2, FAK, IGF1-R, SRC, VEGF-R2, VEGF-R3, FLT3, INS-R, MET, PDGFR-beta, PLK1, SAK, TIE2, COT. […] The reaction mixture was incubated at 30° C. for 80 minutes. […] The incorporation of ^33Pi was determined using a microtiter plates scintillation counter (Microbeta Trilux, Wallac).
pIC50: −log10 of the molar value.
observation-type: pIC50

- compound: "CC(C)n1c2c(c3c1-c1ccccc1C3=O)C(=O)CCC2 [Compound 4b]"
  observation-type: "pIC50"
  data-value: "< 5.00"

---

Target: SAK (Homo sapiens, UniProt O00444)
Construct: made in house; host or cells: Sf9 insect cells, baculovirus
Experiment: Radiometric protein kinase assay (33PanQinase Activity Assay)
Type: biochemical
pIC50: −log10 of the molar value.

- compound-smiles: "CC(C)n1c2c(c3c1-c1ccccc1C3=O)C(=O)CCC2"
  measurement-target: "SAK (Homo sapiens, UniProt O00444)"
  pIC50: "< 5.00"

---

molecules and their reported IC50
Biological target: Aurora-A (Homo sapiens)
Construct: made in house; host or cells: Sf9 insect cells, baculovirus
Sequence (O14965 whole entry): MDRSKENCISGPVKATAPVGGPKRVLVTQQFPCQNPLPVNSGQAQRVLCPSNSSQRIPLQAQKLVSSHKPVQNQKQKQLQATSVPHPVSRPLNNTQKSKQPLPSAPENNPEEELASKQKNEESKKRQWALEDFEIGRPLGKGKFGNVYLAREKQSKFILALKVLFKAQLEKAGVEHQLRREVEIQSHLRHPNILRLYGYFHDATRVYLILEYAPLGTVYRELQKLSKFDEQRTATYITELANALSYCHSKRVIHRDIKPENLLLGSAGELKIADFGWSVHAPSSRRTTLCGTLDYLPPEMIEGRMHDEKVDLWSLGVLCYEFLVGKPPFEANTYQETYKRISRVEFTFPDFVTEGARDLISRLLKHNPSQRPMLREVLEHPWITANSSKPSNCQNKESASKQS
Test: Radiometric protein kinase assay (33PanQinase Activity Assay)
Format: biochemical
Details: 1 μM ATP; read-out: IC50 values [μM] Aurora-A

- compound-smiles: "O=c1ccc(=O)c2c1c1c(=O)c3ccccc3c1n2Cc1ccccc1"
  IC50: "> 10 µM"
- compound-smiles: "CC(C)n1c2c(=O)ccc(=O)c2c2c(=O)c3ccccc3c21"
  IC50: "5.8 µM"

---

Target: VEGF-R2 (Homo sapiens, UniProt P35968)
Construct: made in house; host or cells: Sf9 insect cells, baculovirus
Test: Radiometric protein kinase assay (33PanQinase Activity Assay)
Assay type: biochemical

- compound-smiles: "CC(C)n1c2c(c3c1-c1ccccc1C3=O)C(=O)CCC2"
  IC50: "> 10 µM"

---

IC50 by entry:
Target: CDK4/CycD1 (Homo sapiens, UniProt P11802)
Construct: made in house; host or cells: Sf9 insect cells, baculovirus
Sequence (P11802 whole entry): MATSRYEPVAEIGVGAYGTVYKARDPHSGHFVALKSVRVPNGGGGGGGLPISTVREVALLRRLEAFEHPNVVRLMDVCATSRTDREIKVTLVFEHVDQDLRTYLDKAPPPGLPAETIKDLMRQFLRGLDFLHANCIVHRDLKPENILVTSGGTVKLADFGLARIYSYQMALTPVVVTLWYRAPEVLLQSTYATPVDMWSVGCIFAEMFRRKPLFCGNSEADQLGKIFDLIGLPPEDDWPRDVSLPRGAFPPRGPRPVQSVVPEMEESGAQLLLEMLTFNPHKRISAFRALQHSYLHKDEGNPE
Sequence (P24385 whole entry partner): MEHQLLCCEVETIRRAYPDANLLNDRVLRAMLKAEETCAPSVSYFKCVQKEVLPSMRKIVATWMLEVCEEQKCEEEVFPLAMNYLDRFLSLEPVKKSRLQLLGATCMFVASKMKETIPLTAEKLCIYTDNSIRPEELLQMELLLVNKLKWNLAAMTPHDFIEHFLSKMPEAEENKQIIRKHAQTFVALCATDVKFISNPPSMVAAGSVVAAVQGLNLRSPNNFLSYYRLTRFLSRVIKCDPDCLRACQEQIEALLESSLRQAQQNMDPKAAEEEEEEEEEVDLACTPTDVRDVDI
Assay: Radiometric protein kinase assay (33PanQinase Activity Assay)
Format: biochemical
Settings: 1 μM ATP; read-out: IC50 values [μM] CDK4/CycD1
observation-type: IC50 (µM)

- compound: "O=c1ccc(=O)c2c1c1c(=O)c3ccccc3c1n2Cc1ccccc1 [Compound 6c]"
  reported-relation: "="
  data-value: 7.6
- compound: "CC(C)n1c2c(=O)ccc(=O)c2c2c(=O)c3ccccc3c21 [Compound 6b]"
  reported-relation: ">"
  data-value: 10

---

Target: AKT1 (Homo sapiens)
Construct: made in house; host or cells: Sf9 insect cells, baculovirus
Sequence (P31749 whole entry): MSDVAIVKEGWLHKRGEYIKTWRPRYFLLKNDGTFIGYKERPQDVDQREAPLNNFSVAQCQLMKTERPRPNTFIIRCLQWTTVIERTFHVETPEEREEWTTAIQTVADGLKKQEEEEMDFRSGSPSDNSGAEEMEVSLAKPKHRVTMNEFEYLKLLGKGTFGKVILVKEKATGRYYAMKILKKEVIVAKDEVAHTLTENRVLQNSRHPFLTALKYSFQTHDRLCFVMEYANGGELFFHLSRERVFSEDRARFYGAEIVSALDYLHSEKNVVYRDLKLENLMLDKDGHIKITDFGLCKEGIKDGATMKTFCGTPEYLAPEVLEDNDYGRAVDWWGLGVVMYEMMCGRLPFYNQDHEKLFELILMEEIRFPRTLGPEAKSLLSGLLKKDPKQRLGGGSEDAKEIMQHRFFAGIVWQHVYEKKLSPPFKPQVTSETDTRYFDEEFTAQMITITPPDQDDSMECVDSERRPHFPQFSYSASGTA
Assay: Radiometric protein kinase assay (33PanQinase Activity Assay)
Assay type: biochemical
Settings: 1 μM ATP; read-out: IC50 values [μM] AKT1

- compound: "CC(C)n1c2c(=O)ccc(=O)c2c2c(=O)c3ccccc3c21 [Compound 6b]"
  reported-relation: "="
  IC50, µM: 9.3
- compound: "O=c1ccc(=O)c2c1c1c(=O)c3ccccc3c1n2Cc1ccccc1 [Compound 6c]"
  reported-relation: ">"
  IC50, µM: 10

---

Target: B-RAF-VE (Homo sapiens, UniProt P15056, V600E)
Construct: made in house; host or cells: Sf9 insect cells, baculovirus
Experiment: Radiometric protein kinase assay (33PanQinase Activity Assay)
Format: biochemical

- compound-smiles: "CC(C)n1c2c(c3c1-c1ccccc1C3=O)C(=O)CCC2"
  measurement-target: "B-RAF-VE (Homo sapiens, UniProt P15056, V600E)"
  IC50: "> 10 µM"

---

Target: FAK (Homo sapiens, UniProt Q05397)
Construct: made in house; host or cells: Sf9 insect cells, baculovirus
Test: Radiometric protein kinase assay (33PanQinase Activity Assay)
Assay type: biochemical

- compound: "CC(C)n1c2c(c3c1-c1ccccc1C3=O)C(=O)CCC2 [Compound 4b]"
  IC50: "> 10 µM"

---

System: 5637
Assay: Proliferation of tumor cell lines (Bracht et al.)
Format: cell-based
Conditions: 5637; read-out: IC50 (μM) Mean, inhibition of cell proliferation
Listing of entries alongside the reported IC50.
observation-type: IC50 (µM)

- compound-smiles: "O=C1CCCc2c1c1c(n2CCc2ccccc2)-c2ccccc2C1=O"
  data-value: 10.7
- compound-smiles: "O=c1ccc(=O)c2c1c1c(=O)c3ccccc3c1n2Cc1ccccc1"
  data-value: 2.75

---

Target: IGF1-R (Homo sapiens, UniProt P08069)
Construct: made in house; host or cells: Sf9 insect cells, baculovirus
Sequence (P08069 31-1367): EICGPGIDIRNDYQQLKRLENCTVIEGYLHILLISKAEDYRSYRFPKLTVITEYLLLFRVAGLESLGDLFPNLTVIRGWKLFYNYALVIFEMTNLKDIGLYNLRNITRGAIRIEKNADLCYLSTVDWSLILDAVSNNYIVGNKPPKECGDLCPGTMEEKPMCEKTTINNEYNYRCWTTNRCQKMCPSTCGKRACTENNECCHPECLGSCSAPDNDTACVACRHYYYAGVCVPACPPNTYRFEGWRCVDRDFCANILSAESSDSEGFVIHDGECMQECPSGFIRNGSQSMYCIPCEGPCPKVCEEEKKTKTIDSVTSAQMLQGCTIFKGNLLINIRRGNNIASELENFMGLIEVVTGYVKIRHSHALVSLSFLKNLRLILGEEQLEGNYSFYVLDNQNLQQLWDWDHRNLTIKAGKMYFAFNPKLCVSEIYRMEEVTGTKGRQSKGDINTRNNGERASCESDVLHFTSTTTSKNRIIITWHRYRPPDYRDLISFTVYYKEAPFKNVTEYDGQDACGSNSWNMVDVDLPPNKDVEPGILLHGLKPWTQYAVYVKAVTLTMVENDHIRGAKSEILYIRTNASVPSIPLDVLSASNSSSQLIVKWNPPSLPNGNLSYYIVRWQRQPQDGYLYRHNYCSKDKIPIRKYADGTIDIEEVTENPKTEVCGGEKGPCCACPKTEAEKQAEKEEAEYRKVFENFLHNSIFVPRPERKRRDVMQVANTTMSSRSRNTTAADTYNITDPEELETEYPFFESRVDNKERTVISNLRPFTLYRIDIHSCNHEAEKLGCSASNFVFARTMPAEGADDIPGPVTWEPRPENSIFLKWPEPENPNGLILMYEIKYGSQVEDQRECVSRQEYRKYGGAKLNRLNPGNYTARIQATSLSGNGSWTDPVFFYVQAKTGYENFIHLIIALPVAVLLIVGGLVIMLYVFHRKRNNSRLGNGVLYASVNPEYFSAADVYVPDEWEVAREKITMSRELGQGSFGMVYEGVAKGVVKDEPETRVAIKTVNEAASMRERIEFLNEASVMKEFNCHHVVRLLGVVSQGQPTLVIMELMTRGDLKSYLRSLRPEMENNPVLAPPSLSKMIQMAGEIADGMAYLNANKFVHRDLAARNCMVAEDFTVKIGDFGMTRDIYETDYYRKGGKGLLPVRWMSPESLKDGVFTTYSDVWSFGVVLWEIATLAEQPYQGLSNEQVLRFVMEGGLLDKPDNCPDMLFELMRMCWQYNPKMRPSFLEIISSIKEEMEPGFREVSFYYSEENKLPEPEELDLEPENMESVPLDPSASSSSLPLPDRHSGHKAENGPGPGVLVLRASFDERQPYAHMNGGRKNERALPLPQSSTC
Experiment: Radiometric protein kinase assay (33PanQinase Activity Assay)
Type: biochemical
Settings: 1 μM ATP; read-out: IC50 values [μM] IGF1-R
The entries below are paired with their reported IC50.

- compound-smiles: "O=c1ccc(=O)c2c1c1c(=O)c3ccccc3c1n2Cc1ccccc1"
  measurement-target: "IGF1-R (Homo sapiens, UniProt P08069)"
  IC50 / µM: 2.5
- compound-smiles: "CC(C)n1c2c(=O)ccc(=O)c2c2c(=O)c3ccccc3c21"
  measurement-target: "IGF1-R (Homo sapiens, UniProt P08069)"
  IC50 / µM: 2.9
